B1: MIA2 (parent)
chain: DMVSNIELPTRIHEEVYFEPSSSK

Variants of: B1
Assay: protein stability index of a GFP-peptide fusion (GPS, HEK-293T) (PSI 1-6); higher = more stable;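 also: lentivirally expressed fusions sorted by FACS into six bins by GFP to DsRed ratio, PSI derived from sequencing read proportions per bin multiplied by bin number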
Conditions: c terminus: a fixed tail appended
Class true (1): protein stability index at least 4. Class false (0): protein stability index below 4.

> print(dat)
   variant.spec        cat
1           P9S  false (0)

Reported protein stability index reaches at least 4 for `E14S` ?
false (0)

Record `E19Y` ; criterion: protein stability index no lower than 4. Met?
false (0)

Could you verify whether the entry `L8W` shows protein stability index of no less than 4?
true (1)

Does protein stability index meet or surpass 4 for `E7R` ?
false (0)

Exam item: decide whether the reported protein stability index for `S23F` is at least 4.
false (0)

Could you verify whether the entry `S4C` shows protein stability index of no less than 4?
false (0)

protein stability index >= 4 for `M2F` ?
false (0)

Quick check, protein stability index >= 4? `F18M`
true (1)

State whether the measured protein stability index reaches 4, counting equality as reaching it, for `I6V`
true (1)

Hi team, for `P9R` , is the recorded protein stability index at or above 4?
false (0)

Given `E7W` , state whether its protein stability index is at least 4.
false (0)

Is protein stability index for `P9A` at or above 4?
false (0)

Check if protein stability index >= 4 (inclusive). Item: `R11C`
false (0)

Check this variant for protein stability index at or above 4: `E7D`
false (0)

Hi, just wondering whether `S4W` shows protein stability index of 4 or higher.
false (0)

Please check the record `M2K` and state if its protein stability index is at or above 4.
false (0)
